Provenance of the data: patent US20220213099A1

Catalogue of half-life at 5 mM readings, one per entry.
# target_or_test_system: human rIALP (Homo sapiens, UniProt P09923)
# Sequence (P09923 20-503 limits assumed): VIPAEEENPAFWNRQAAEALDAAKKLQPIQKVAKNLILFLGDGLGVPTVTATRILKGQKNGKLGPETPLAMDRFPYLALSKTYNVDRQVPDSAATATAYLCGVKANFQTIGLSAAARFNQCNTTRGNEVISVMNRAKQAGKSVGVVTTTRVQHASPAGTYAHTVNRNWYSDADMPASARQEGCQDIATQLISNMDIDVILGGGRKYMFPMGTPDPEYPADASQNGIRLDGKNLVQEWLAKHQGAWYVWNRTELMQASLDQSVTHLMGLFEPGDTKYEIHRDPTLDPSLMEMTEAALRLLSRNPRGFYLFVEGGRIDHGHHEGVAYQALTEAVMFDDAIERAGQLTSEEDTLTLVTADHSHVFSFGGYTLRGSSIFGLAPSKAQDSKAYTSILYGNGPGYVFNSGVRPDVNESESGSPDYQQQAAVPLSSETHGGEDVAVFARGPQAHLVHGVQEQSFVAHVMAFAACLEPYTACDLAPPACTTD
# experiment: Recombinant intestinal alkaline phosphatase (rIALP) assay, human
# Assay type: in vitro ADME
# condition_summary: 100 mM Tris-HCl buffer pH 7.4, 37° C., 120 minutes incubation, read-out: t1/2 in human rIALP
Structures can show the parent of a compound that is named as a salt.

State its half-life at 5 mM for this compound: Cc1c(-c2[nH]c3ccc(C4CCN(CC(N)=O)CC4)cc3c2C(C)C)cn2nc[n+](COP(=O)(O)O)c2c1C (single isomer, unassigned) [Example 8, trifluoroacetate] < 10 min

# context switch: different compound, same half-life at 5 mM
State its half-life at 5 mM for this compound: Cc1c(-c2[nH]c3ccc(C4CC[N+](COP(=O)(O)O)(CC(N)=O)CC4)cc3c2C(C)C)cn2ncnc2c1C (single isomer, unassigned) [Example 9, trifluoroacetate] < 5 min
